Test system: HEK 293 cells transiently transfected with SmBiT-PRKACA and LgBiT-PRKAR2A
Assay explanation: Live cell assay, luminescent signal decay over time in HEK293 cells expressing the PKA NanoBiT pair
Assay type: cell-based
Condition label: DMEM, 4% FBS; almost independent of concentration
Experimental: Compounds WZ-0429, WZ-0439, WZ-0454, WZ-0441, WZ-0451. WZ-0416, WZ-0420, WZ-0461 and WZ-0419 were tested in HEK 293 cells transiently transfected plasmid DNA constructs for SmBiT-PRKACA and LgBiT-PRKAR2A expressed via the HSV-TK promoter in DMEM media with 4% FBS, and the luminescent signal decays were monitored over time. […] Day 3, live cell assay. […] Luminescence was measured on a GloMax Multi Plus luminometer every 15 minutes at 37° C. using a 1 second integration time.
Result type: luminescent signal decay

Molecule: O=C(OCOc1c(Cc2ccco2)nc2c(Cc3ccccc3)nc(-c3ccccc3)cn12)C1CCCO1 (stereo not shown)
Result: rapid signal decay

Molecule: O=C(OCOc1c(Cc2ccco2)nc2c(Cc3ccccc3)nc(-c3ccccc3)cn12)C1CCOC1 (stereo not shown)
Result: rapid signal decay

Molecule: C=CCOC(=O)N1CCC(C(=O)OCOc2c(Cc3ccco3)nc3c(Cc4ccccc4)nc(-c4ccccc4)cn23)C1 (stereo not shown)
Result: rapid signal decay

Molecule: COC(OC)C(=O)OCOc1c(Cc2ccco2)nc2c(Cc3ccccc3)nc(-c3ccccc3)cn12
Result: rapid signal decay
